The origin of these recorded values is PubChem BioAssay AID686978.

experiment.description: qHTS for Inhibitors of human tyrosyl-DNA phosphodiesterase 1 (TDP1): qHTS in cells in absence of CPT; also: nearly all actives have a fitted effect of over 55% in size
condition.context: DT40 Tdp1-/- hTDP1 cells, no CPT, ATP luminescence, 48 h
In all, about 420,000 compounds went through this assay and about 64,000 (15%) were called active. Another 27% or so got no clear call; they are omitted. Calls follow the shape of the dose curve; as a rule, active = well fitted inhibition curve with a large enough effect; inconclusive = small, poorly fitted or top-dose-only effect; inactive = flat fitted curve, though single readings scatter. A selection follows.
Possible outcomes: 1 = active, 0 = inactive

molecule | group
COc1ccc(CCNC(=O)CCCn2c(=O)c3ccccc3n(Cc3ccc(F)cc3Cl)c2=O)cc1OC | 0
O=C(Cn1nnc2ccccc2c1=O)NCc1ccc(Cl)cc1 | 0
COCCNC(=O)CCCn1c(=O)c2ccccc2n(Cc2cccc([N+](=O)[O-])c2)c1=O | 0
CC(C)(C)NC(=O)COC(=O)c1cc(Cl)ccc1[N+](=O)[O-] | 0
CCOc1c(Nc2cccc(Cl)c2)c(=O)c1=O | 0
COC(=O)N1CCC[C@@]2(CCN(C(=O)NC(C)C)C2)C1 | 0
COc1ccccc1CNC(=O)CCCCn1c(=O)c2ccccc2n(CC(=O)Nc2cc(Cl)ccc2C)c1=O | 1
Cc1c(Cl)cnc(NC(=O)COC(=O)C2CCCC2)c1Cl | 0
Cc1cccc(-n2ncc(C(=O)N3CCN(c4ccc(Cl)cc4)CC3)c2C2CCN(C(=O)OC(C)(C)C)CC2)c1 | 1
Cc1ccc(C(C[N+](=O)[O-])c2c(C)cc3ccccn23)cc1 (centres undefined) | 1
COc1ccccc1CNC(=O)CCn1c(=O)c2ccccc2n(CC(=O)Nc2cccc(Cl)c2)c1=O | 1
O=C(CCCCCNC(=O)c1ccccc1)N/N=C/c1ccccc1 | 0
CCCCNC(=O)Cn1nc(C)c(S(=O)(=O)N2CCOCC2)c1C | 0
CN(Cc1ccccc1)Cc1ccccc1F | 0
Cc1ccccc1NC(=O)c1c(NC(=O)c2ccccc2F)sc2c1CCC(C)C2 (centres undefined) | 0
COCCCN(C(=O)Cn1ncc2c(=O)oc3ccc(C)cc3c21)C(C)c1ccncc1 (centres undefined) | 0
NS(=O)(=O)c1ccc(NC(=S)NC(=O)c2cccnc2)cc1 | 0
NN=C(NN=Cc1ccccc1)c1ccccc1 | 1
CCCn1c(C)cc(/C=C(\C#N)C(=O)OCC(=O)N(C)c2c(N)n(Cc3ccccc3)c(=O)[nH]c2=O)c1C | 0
COc1ccc(C(=O)OCC(=O)Nc2cc(C)on2)cc1F | 0
O=C(C[n+]1ccccc1)N/N=C/c1ccc(O)cc1 | 0
COc1ccc(OC)c(C(=O)c2ccc(Cl)cc2)c1 | 0
COc1ccc(NC(=O)Cn2c(=O)n(Cc3ccc(C(=O)NCc4ccccc4Cl)cc3)c(=O)c3ccccc32)cc1 | 0
COc1ccc(Nc2nc(Cl)nc(NCc3ccco3)n2)cc1 | 0
CCOc1ccc(CNC(=O)C2CCC(=O)N2C2CCCC2)cc1OC (centres undefined) | 0
Cc1cc(C)cc(NC(=S)NCCCN2CCOCC2)c1 | 0
CCC(c1nnnn1C1CCCC1)N1CCN(C(=O)c2ccco2)CC1 (centres undefined) | 0
Brc1ccccc1C1N=C(c2ccccc2)NO1 (centres undefined) | 0
CC(NC(=O)COC(=O)c1ccc(Cl)cc1O)c1ccc(F)cc1 (centres undefined) | 0
COC(=O)Cc1c(O)ccn(Cc2cccc(C(F)(F)F)c2)c1=O | 0
CC(=O)Nc1ccc(NC(=O)c2ccc3c(c2)C(=O)N(c2ccccc2C)C3=O)cc1 | 0
CN(Cc1ccccc1F)C(=O)C(Cc1ccccc1)NC(=O)c1ccccc1 (centres undefined) | 1
O=C(O)C(=Cc1ccccc1[N+](=O)[O-])c1ccccc1 | 0
O=C(Nc1nncs1)c1ccccc1NS(=O)(=O)c1cccs1 | 0
COC(=O)c1ccc(CNC(=O)Cn2cc(C)c(=O)[nH]c2=O)cc1 | 0
Cc1ccc2nc(COc3ccc(NC(=O)COc4ccccc4F)cc3)cc(=O)n2c1 | 0
Cc1ccccc1NC(=O)Cc1nc(COC(=O)CNC(=O)c2ccc(Cl)cc2Cl)cs1 | 0
COCc1cc(C)nc(SCC(=O)Nc2cccc(C)c2)c1C#N | 0
COc1ccc(S(=O)(=O)N2CCOCC2)cc1NC(=O)Cc1coc2cc(C)ccc12 | 0
COc1ccccc1CNC(=O)CCn1c(=O)sc2ccccc21 | 0
CCCCNC(=O)OC(C)CNC(=O)OC (centres undefined) | 0
CC(Cc1ccccc1)C(=O)N(C)Cc1ccccc1 (centres undefined) | 0
CCOC(=O)CN/C=C(\C#N)c1ccc(F)cc1 | 0
CC1=C(C(=O)N2CCOCC2)CC(CC(=O)NCc2cccs2)C(=O)N1CCCN1CCCC1=O (centres undefined) | 0
